tested on: Bradyrhizobium japonicum; experiment: microbe, parasite or virus in culture; format: cell-based; conditions: 120 hrs
Assay readout: MIC (mg/L)
Respond numerically; units are mg/L and should not be typed.

Reported MIC of "O=C1CCCC2=C1[C@H](c1ccccc1)Nc1ccc(C(=O)c3ccccc3)cc1N2" : 16

MIC recorded for this molecule, "Nc1c(C(=O)O)sc2nc(-c3ccccc3)cc(-c3ccc(F)cc3)c12" , is 64

According to the records, this molecule CN(C)[C@@H]1C(O)=C(C(N)=O)C(=O)[C@@]2(O)C(O)=C3C(=O)c4c(O)cccc4[C@@](C)(O)[C@H]3[C@H](O)[C@@H]12 [Oxytetracycline, reference compound] displays MIC of 4

// MIC lookup, molecule = "COc1cc(-c2cc(-c3ccccc3)nc3sc(C(=O)O)c(N)c23)cc(OC)c1OC" , result: 32

// MIC value for "Cc1cc([C@H]2Nc3ccc(C(=O)c4ccccc4)cc3NC3=C2C(=O)CC(C)(C)C3)cc(C)c1O" : 32

According to the records, this molecule COc1ccc(C2Nc3ccc(C(=O)c4ccccc4)cc3NC3=C2C(=O)CC(c2ccccc2)C3)cc1 (stereo not shown) displays MIC of 32

"COc1ccc(N(C(=O)c2ccc(-n3cnnn3)cc2)C2(C(=O)Nc3ccccc3C)CCCCC2)cc1" yielded MIC of 32
